The following compounds are listed with their measured CC50 at 72 h values.
Assay: Cytotoxicity against human THP-1 cells assessed as reduction in cell viability measured after 72 hrs by resazurin staining based analysis
Type: toxicity
quantity: CC50 at 72 h (mg/L)

>  <smiles>
COc1cc(/C=N/NC(=O)c2ccncc2)ccc1OCc1cn(CCNc2ccnc3cc(Cl)ccc23)nn1

>  <inequality.sign>
=

>  <measured.value>
73

$$$$
>  <smiles>
O=C(N/N=C/c1ccccc1-n1cc(CN2CCN(c3ccnc4cc(Cl)ccc34)CC2)nn1)c1ccncc1

>  <inequality.sign>
=

>  <measured.value>
18

$$$$
>  <smiles>
O=C(N/N=C/c1ccc(OCc2cn(CCNc3ccnc4cc(Cl)ccc34)nn2)cc1)c1ccncc1

>  <inequality.sign>
=

>  <measured.value>
34

$$$$
>  <smiles>
COc1cc(/C=N/NC(=O)c2ccncc2)ccc1OCc1cn(-c2ccnc3cc(Cl)ccc23)nn1

>  <inequality.sign>
>

>  <measured.value>
100

$$$$
>  <smiles>
COc1cc(/C=N/NC(=O)c2ccncc2)ccc1OCc1cn(CCCNc2ccnc3cc(Cl)ccc23)nn1

>  <inequality.sign>
>

>  <measured.value>
100

$$$$
>  <smiles>
O=C(N/N=C/c1ccc(OCc2cn(CCCNc3ccnc4cc(Cl)ccc34)nn2)cc1)c1ccncc1

>  <inequality.sign>
=

>  <measured.value>
67

$$$$
>  <smiles>
O=C(N/N=C/c1ccc(OCc2cn(-c3ccnc4cc(Cl)ccc34)nn2)cc1)c1ccncc1

>  <inequality.sign>
>

>  <measured.value>
100

$$$$

----------
Tested on: Mycobacterium tuberculosis
Assay: Antimycobacterial activity against Mycobacterium tuberculosis mc2 6230 assessed as reduction in log10 CFU at 1 time of MIC measured after 6 days by time-killing kinetics assay
Format: functional, organism-based
Conditions: time 6.0 day
Active and inactive are the calls of the source. The rule behind the calls is not given here.
quantity: Activity

>  <smiles>
COc1cc(/C=N/NC(=O)c2ccncc2)ccc1OCc1cn(CCNc2ccnc3cc(Cl)ccc23)nn1

>  <measured.value>
Active

$$$$
>  <smiles>
O=C(N/N=C/c1ccc(OCc2cn(CCNc3ccnc4cc(Cl)ccc34)nn2)cc1)c1ccncc1

>  <measured.value>
Active

$$$$
>  <smiles>
COc1cc(/C=N/NC(=O)c2ccncc2)ccc1OCc1cn(-c2ccnc3cc(Cl)ccc23)nn1

>  <measured.value>
Active

$$$$

----------
Test system: Mycobacterium tuberculosis
Test: Antimycobacterial activity against Mycobacterium tuberculosis mc2 6230 assessed as inhibition of bacterial growth measured after 7 days by broth dilution method
Type: functional
Conditions: mc2 6230, 168 h, time 7 day
The following compounds are listed with their measured MIC values.

>  <smiles>
O=C(N/N=C/c1ccc(OCc2cn(CCCNc3ccnc4cc(Cl)ccc34)nn2)cc1)c1cccnc1

>  <inequality.sign>
>

>  <MIC, µg/mL>
200

$$$$
>  <smiles>
O=C(N/N=C/c1ccccc1-n1cc(CN2CCN(c3ccnc4cc(Cl)ccc34)CC2)nn1)c1cccnc1

>  <inequality.sign>
>

>  <MIC, µg/mL>
200

$$$$
>  <smiles>
O=Cc1ccc(OCc2cn(CCCNc3ccnc4cc(Cl)ccc34)nn2)cc1

>  <inequality.sign>
=

>  <MIC, µg/mL>
50

$$$$
>  <smiles>
O=C(N/N=C/c1ccc(OCc2cn(-c3ccnc4cc(Cl)ccc34)nn2)cc1)c1cccnc1

>  <inequality.sign>
>

>  <MIC, µg/mL>
200

$$$$
>  <smiles>
COc1cc(/C=N/NC(=O)c2cnccn2)ccc1OCc1cn(CCCNc2ccnc3cc(Cl)ccc23)nn1

>  <inequality.sign>
>

>  <MIC, µg/mL>
200

$$$$
>  <smiles>
O=C(N/N=C/c1ccc(OCc2cn(CCNc3ccnc4cc(Cl)ccc34)nn2)cc1)c1ccncc1

>  <inequality.sign>
=

>  <MIC, µg/mL>
0.5

$$$$
>  <smiles>
COc1cc(/C=N/NC(=O)c2ccncc2)ccc1OCc1cn(CCNc2ccnc3cc(Cl)ccc23)nn1

>  <inequality.sign>
=

>  <MIC, µg/mL>
0.5

$$$$
>  <smiles>
COc1cc(/C=N/NC(=O)c2ccncc2)ccc1OCc1cn(CCCNc2ccnc3cc(Cl)ccc23)nn1

>  <inequality.sign>
=

>  <MIC, µg/mL>
0.25

$$$$
>  <smiles>
O=Cc1ccc(OCc2cn(-c3ccnc4cc(Cl)ccc34)nn2)cc1

>  <inequality.sign>
>

>  <MIC, µg/mL>
200

$$$$
>  <smiles>
O=Cc1ccccc1-n1cc(CN2CCN(c3ccnc4cc(Cl)ccc34)CC2)nn1

>  <inequality.sign>
=

>  <MIC, µg/mL>
100

$$$$

Reference source: ChEMBL document CHEMBL5346861
